Measured values drawn from the supplement of paper PMC10567573 for this set.

B1: GNB5 (parent)
chain: YYPSGDAFASGSDDATCRLYDLRA

Variants of: B1
Experiment: protein stability index of a GFP-peptide fusion (GPS, HEK-293T) (PSI 1-6); higher = more stable;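 also: lentivirally expressed fusions sorted by FACS into six bins by GFP to DsRed ratio, PSI derived from sequencing read proportions per bin multiplied by bin number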
Settings: c terminus: a fixed tail appended
# protein stability index values compiled below
Enter the number alone.

Field: example entries. Status: answers known.
Provide measured protein stability index value, entry: QYPSGDAFASGSDDATCRLYDLRA [Y1Q]
3.81

Provide measured protein stability index value, entry: YYPSGDAFASGSDDATCRLYDLPA [R23P]
2.86

Provide measured protein stability index value, entry: YYPSGDVFASGSDDATCRLYDLRA [A7V]
2.23

Provide measured protein stability index value, entry: YYPSGDAFASGYDDATCRLYDLRA [S12Y]
2.98

Provide measured protein stability index value, entry: YYPSGDAFASGSDDATERLYDLRA [C17E]
3.36

Provide measured protein stability index value, entry: YYPSGDAFASGSDDLTCRLYDLRA [A15L]
2.15

Provide measured protein stability index value, entry: YYPSGDKFASGSDDATCRLYDLRA [A7K]
2.52

Provide measured protein stability index value, entry: YYPSGDAFASGSDDATCRLGDLRA [Y20G]
2.63

Others:
Provide measured protein stability index value, entry: AYPSGDAFASGSDDATCRLYDLRA [Y1A]
3.83

Provide measured protein stability index value, entry: YYPSGDAFANGSDDATCRLYDLRA [S10N]
2.64

Provide measured protein stability index value, entry: YYPSGDAFQSGSDDATCRLYDLRA [A9Q]
2.36

Provide measured protein stability index value, entry: MYPSGDAFASGSDDATCRLYDLRA [Y1M]
3.67

Provide measured protein stability index value, entry: YYPSGDPFASGSDDATCRLYDLRA [A7P]
2.5

Provide measured protein stability index value, entry: YYPGGDAFASGSDDATCRLYDLRA [S4G]
3.14

Provide measured protein stability index value, entry: YYPSGDSFASGSDDATCRLYDLRA [A7S]
2.39

Provide measured protein stability index value, entry: YYPSGDAFYSGSDDATCRLYDLRA [A9Y]
2.04

Provide measured protein stability index value, entry: YYPSGDAFLSGSDDATCRLYDLRA [A9L]
1.99

Provide measured protein stability index value, entry: YYPSGDAFASGSDDITCRLYDLRA [A15I]
1.97

Provide measured protein stability index value, entry: YYPSGDAFASGSDDATCRLYDVRA [L22V]
2.62

Provide measured protein stability index value, entry: YYPSGDAFASGSDDATCRLYDLRC [A24C]
2.3

Provide measured protein stability index value, entry: YYPSFDAFASGSDDATCRLYDLRA [G5F]
2.61

Provide measured protein stability index value, entry: YYPSGDAFASGFDDATCRLYDLRA [S12F]
2.41
